Record form. Attribute: Biological Activity, S. pneumoniae ATCC49619. Fill in for each entry.
Tested on: S. pneumoniae
Experiment: Biological activity against bacterial strains: S. pneumoniae
Type: cell-based, Streptococcus pneumoniae
Parameters: unit not given here
Conditions: strain ATCC49619
Just the number, please, no unit after it.

Recorded Biological Activity, S. pneumoniae ATCC49619 (compound CCC1OC(=O)CC(O)C(C)C(OC2OC(C)C(O)C(N(C)C)C2O)C(CC=O)CC(C)C(=NOCCCOc2ccc3ncccc3c2)C=CC(C)=CC1CN(C)C (single isomer, unassigned) [Compound Z] ): 0.049

Recorded Biological Activity, S. pneumoniae ATCC49619 (compound CCC1OC(=O)CC(O)C(C)C(OC2OC(C)C(O)C(N(C)C)C2O)C(CCN2CC(C)CC(C)C2)CC(C)C(=NOCCOc2ccccc2)C=CC(C)=CC1CO (centres unmarked) ): 0.39

// CCC1OC(=O)CC(O)C(C)C(OC2OC(C)C(O)C(N(C)C)C2O)C(CC=O)CC(C)C(=NOCCCCc2cnc3ccccc3c2)C=CC(C)=CC1CO (centres unmarked) : Biological Activity, S. pneumoniae ATCC49619 value = 0.049

Summary for this compound, CCC1OC(=O)CC(O)C(C)C(OC2OC(C)C(O)C(N(C)C)C2O)C(CCN2CC(C)CC(C)C2)CC(C)C(=O)C=CC(C)=CC1CO (centres unmarked) [Compound 8, 20-Deoxy(3,5-dimethyl-1-piperidine)OMT, reference compound] : Biological Activity, S. pneumoniae ATCC49619 is 0.78

Looking up CCC1OC(=O)CC(O)C(C)C(OC2OC(C)C(O)C(N(C)C)C2O)C(CC=O)CC(C)C(=NOCC=Cc2cnc3ccccc3c2)C=CC(C)=CC1CO (single isomer, unassigned) [Compound F] , I found its Biological Activity, S. pneumoniae ATCC49619 recorded as 0.025
